targetUnderTest: rabbit lens aldose reductase (Oryctolagus cuniculus, UniProt P15122)
Construct: aldose reductase prepared from rabbit lens; from tissue; host or cells: rabbit lens
testDetails: Inhibitory effect on rabbit lens aldose reductase
Type: biochemical
measurementContext: aldose reductase prepared from rabbit lens; graphically calculated from inhibitory effect at various concentrations; read-out: 50% Inhibitory concentration (IC50)
endpointLabel: IC50 (nM)
Answers are plain numbers, in nM.

Please go through the list and note IC50 for each molecule.
1. O=C(O)Cn1c(=O)oc2cc(-c3ccccc3)c(Cl)cc21
2. O=C(O)Cn1c(=O)sc2cc(C3CCCCC3)c(Cl)cc21
3. Nc1cc2sc(=O)n(CC(=O)O)c2cc1Cl

Data returned:
1: 49; 2: 140; 3: 100

Respectfully, I request IC50 for each entry included below.
1. Cc1cc2c(cc1-c1ccccc1)sc(=O)n2CC(=O)O
2. O=C(O)Cn1c(=O)sc2cc(Cl)c(Cl)cc21
3. O=C(O)Cn1c(=O)sc2c(Cl)c(-c3ccccc3)ccc21
4. O=C(O)Cn1c(=O)sc2cc([N+](=O)[O-])c(Cl)cc21

Data returned:
1. 33
2. 38
3. 120
4. 120

====

targetUnderTest: rabbit lens aldose reductase (Oryctolagus cuniculus, UniProt P15122)
Construct: aldose reductase prepared from rabbit lens; from tissue; host or cells: rabbit lens
testDetails: Inhibitory effect on rabbit lens aldose reductase
Format: biochemical
measurementContext: aldose reductase prepared from rabbit lens; graphically calculated from inhibitory effect at various concentrations; read-out: 50% Inhibitory concentration (IC50)
endpointLabel: pIC50
Numbers only, as −log10 of the molar value.

Answered cases to consult:
O=C(O)Cn1c(=O)oc2ccc(Cl)cc21; 6.60
O=C(O)Cn1c(=O)sc2cc(Oc3ccccc3)c(Cl)cc21; 7.30
O=C(O)Cn1c(=O)sc2cc(-c3ccccc3)c(Cl)cc21; 7.54
O=C(O)CN1C(=O)C(=O)c2ccc(Cl)cc21; 6.52
O=C(O)Cn1c(=O)sc2ccc(Cl)cc21; 6.70

// for each molecule in input: emit pIC50
1. O=C(O)Cn1c(=O)sc2cc(Br)c(Cl)cc21
2. O=C(O)Cn1c(=O)sc2cc(Oc3ccccc3Cl)ccc21
3. O=C(O)Cn1c(=O)sc2cc(Oc3ccccc3)ccc21
4. O=C(O)CN1C(=O)Cc2ccc(Cl)cc21

Data returned:
1. 7.30
2. 6.57
3. 6.16
4. 6.57

====

targetUnderTest: rabbit lens aldose reductase (Oryctolagus cuniculus, UniProt P15122)
Construct: aldose reductase prepared from rabbit lens; from tissue; host or cells: rabbit lens
testDetails: Inhibitory effect on rabbit lens aldose reductase
Type: biochemical
endpointLabel: IC50 (µM)
Give bare numbers, in µM.

Data request: Look up IC50: O=C(O)Cn1c(=O)sc2cc(Cl)ccc21
Data returned: 0.41
